// reported composite z-score for each item listed
- Test name: probe aNOTCH3 binding on compound microarray – biochemical, small-molecule microarray, 635/667 nm fluorescence, primary screen (AID 1120);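 further: probe is a biotin-tagged antibody raised against NOTCH3 rather than NOTCH3 protein; score merges spot fluorescence near 667 nm with spot signal to noise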
- Condition details: higher = more signal

- Compound: "O=C1[C@H]2C=C(I)[C@H](C[C@@H]2OCCCCO)[C@@]12CO2"
  composite z-score: -0.0057
- Compound: "COC(=O)C(CC#Cc1ccc2c(c1)[C@]1(C(=O)N2)[C@H](c2ccc(O)cc2)N2[C@H](c3ccccc3)[C@H](c3ccccc3)OC(=O)[C@H]2[C@@H]1C(=O)N1CCN(c2ncccn2)CC1)C(=O)OC"
  composite z-score: 0.166

What value of measured composite z-score is listed for CC(C)OC(=O)C=C1C[C@@H](c2cccc(Cl)c2)O[C@@H](c2cccc(Cl)c2)O1 ? -0.137

Record: COc1ccc([C@H]2C[C@H]3C(Br)=C[C@@]2(CO)C(=O)[C@]32CO2)cc1 -0.103

Record: COCCOC(=O)N1C(=O)[C@@]2(c3ccccc31)[C@H](C(N)=O)[C@H]1C(=O)O[C@H](c3ccccc3)[C@H](c3ccccc3)N1[C@@H]2c1ccc(O)cc1 -0.162

Record: CC(CO)N1C(=O)[C@@H]2C3C(=O)OCCC/C=C\[C@H]3OC23C=CCN(CCN2CCOCC2)C(=O)[C@@H]13 (some centres not stated) -0.21

Record: C=C(/C(=C/C[C@H](OC(C)=O)c1ccc(OCCO)cc1)c1cc(C(=O)OC)ccc1OC)C(C)C 0.0562

====

- Test name: small molecules captured by biotinylated probe aFSTL3 – biochemical, small-molecule microarray, fluorescence 635/667, stem cell growth factor project, primary screen (AID 1064);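 further: measures binding of the biotinylated anti-FSTL3 antibody to printed compounds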
- Condition details: higher = more signal
Assign satisfied to entries whose composite z-score meets or exceeds -0.2; assign not satisfied to the rest.

Hello, I need to know if COC(=O)[C@@]1(Cc2ccc(OC)cc2)[C@H]2c3cc(C(=O)N(C)C)n(Cc4ccc(C(F)(F)F)nc4)c3C[C@H]2CN1C(=O)c1ccccc1 has measured composite z-score not below -0.2. Thanks! satisfied

Record: C=C(CCCC)/C(=C/C[C@@H](OC(C)=O)c1ccccc1OCCO)c1cc(C(=O)OC)ccc1OC satisfied

====

- Test name: JC-1 mitochondrial signal, unstimulated adipocytes – cell-based, JC-1 fluorescence, 3T3-L1 adipocytes, 24 h, 100 nL compound, profiling panel (AID 1168); further: test concentration not given here
- Condition details: JC-1 mitochondrial fluorescence, higher = more signal, called active from +8 up or from −8 down
Assign MET to entries whose z-score meets or exceeds -0.09; assign NOT MET to the rest.

- Compound: "COC(=O)[C@@]1(Cc2ccccc2)[C@H]2c3cc(C(=O)N4CCCC4)n(Cc4ccc(O)c(OC)c4)c3C[C@H]2CN1C(=O)c1ccccc1"
  Group: "NOT MET"
- Compound: "CC(C)CCC[C@@H](C)[C@H]1CC[C@@]2(C)C3=C(CC[C@]12C)[C@@]1(C)CC[C@H](OC(=O)c2ccc(C(F)(F)F)nc2)C(C)(C)C1CC3 (stereo not given in full)"
  Group: "NOT MET"
- Compound: "CCOC(=O)C1=CCC(c2ccc(F)cc2)N(S(=O)(=O)c2ccc(C)cc2)C1 (stereo not given)"
  Group: "NOT MET"

Hello, I need to know if [N-]=[N+]=Nc1ccccc1C[C@]1(C(=O)N2CCCCC2)COC(c2ccc(OCCCO)cc2)=N1 has measured z-score not below -0.09. Thanks! MET

Record: OCC1C=C(/C=C/c2ccccc2)CN1Cc1ccccc1Br (stereo not given) MET

Record: CC(C)Cc1ccc(CN2CC[C@@H](N)C2)cc1 NOT MET

Record: COC(=O)[C@@]1(Cc2ccc(OC)cc2)[C@H]2c3cc(C(=O)N(C)C)n(Cc4ccc(C(F)(F)F)nc4)c3C[C@H]2CN1C(=O)c1ccccc1 NOT MET

Record: COC(=O)[C@@]1(Cc2ccc(OC)cc2)[C@H]2c3cc(C(=O)N4CCCC4)n(CCc4ccc(O)c(O)c4)c3C[C@H]2CN1C(=O)c1ccccc1 NOT MET

Record: O[C@@H](Cc1ccccc1)[C@@H](/C=C/C1CC1)NCc1cccc(Cl)c1 MET

Record: CCCCN1CC=CC23O[C@@H]4/C=C\CCCOC(=O)C4[C@H]2C(=O)N(CCCCCO)[C@@H]3C1=O (stereo not given in full) MET

Record: O=C1O[C@@H](c2ccccc2)[C@@H](c2ccccc2)N2[C@@H](c3ccccc3OCCO)[C@]3(C(=O)Nc4ccc(C#CC5(O)CCCCCC5)cc43)[C@@H](C(=O)N3CCN(c4ncccn4)CC3)[C@H]12 MET

Record: C=CCC(OC(C)=O)[C@@H]1[C@@H](N(Cc2ccc(-c3cccc(C(F)(F)F)c3)o2)C(=O)Cc2ccc(OC)cc2)c2cc(OCCCO)ccc2N1C(=O)c1ccc2ccccc2c1 (stereo not given in full) NOT MET

Record: [N-]=[N+]=NCc1ccccc1[C@H]1OC(c2ccc(OCCCO)cc2)=N[C@@]1(Cc1ccccc1)C(=O)N1CCCCC1 NOT MET

Record: CCCCN1CC=CC23O[C@@H]4C=CCCOC(=O)C4[C@H]2C(=O)N(CCCCCO)[C@@H]3C1=O (stereo not given in full) MET

Values from PubChem BioAssay
